This section presents compounds with their documented GI50 values.
Tested on: OVCAR-5
Test summary: NCI tumour cell line growth inhibition, 48 h
Activity calls are given as the source filed them. Cut-off read from the data, not from the text of the source: active = GI50 up to about 1.1 µM and inactive = higher.
Quantity name: GI50

> print(dat)
                                    compound        value.observed
 1  Cc1sc(NC=C2C(=O)CC(C)(C)CC2=O)nc1-c1ccccc1   > 100 µM (inactive)
 2  CC1(C)OC2C(CCP(=O)(O)O)OC(c3nc(C(N)=O)cs3)C2O1 (configuration not stated)   > 100 µM (inactive)
 3      O=C1/C(=C/c2ccccc2Cl)COc2ccc(Br)cc21   > 100 µM (inactive)
 4  COc1ccc2c(c1)CC[C@@H]1C2CC[C@]2(C)C(=O)NC(=O)CC12 (some centres not stated)   > 100 µM (inactive)
 5  CCOC(=O)C(NC(=O)CC)(Nc1ccc(F)cc1F)C(F)(F)F (configuration not stated)   > 100 µM (inactive)
 6            COc1ccc(CCc2cc(OC)cc(OC)c2)cc1  > 61.5 µM (inactive)
 7                 CN(C)CCC(=O)/C=C\c1ccccc1    20.9 µM (inactive)
 8  Cc1ccc(S(=O)(=O)N/N=C2\CC3C4C=CC3C2C4)cc1 (configuration not stated)   > 100 µM (inactive)
 9  CSC1NC(c2ccccc2)=C(C#N)C(=O)N1C1OCC(OC(C)=O)C(OC(C)=O)C1OC(C)=O (configuration not stated)   > 100 µM (inactive)
10  Cc1ccc(-c2nc(-c3nccc4ccccc34)oc2-c2ccccc2)cc1   > 100 µM (inactive)
11  O=c1[nH]c(Nc2cccc(C(F)(F)F)c2)nc2[nH]cnc12   > 100 µM (inactive)
12  C1COCCSC2=C(SCCO1)SC(=C1SC3=C(SCCOCCOCCS3)S1)S2   > 100 µM (inactive)

* * *

System: SF-268
Test summary: NCI tumour cell line growth inhibition, 48 h
Active and inactive are the calls of the source. Cut-off read from the data, not from the text of the source: active = GI50 up to about 1.1 µM and inactive = higher.
Quantity name: GI50

> print(dat)
                                   compound       value.observed
1  COc1cc(C2=NNC(=O)c3ccccc3N2c2nc(-c3cccs3)nc3ccc(Br)cc23)cc(OC)c1OC   8.91 µM (inactive)
2           C=C(CS(=O)(=O)c1ccccc1)C(=O)OCC   19.6 µM (inactive)
3  COc1ccc(OC)c(CC(=O)c2ccc(O)c(C(=O)NCCc3ccc(F)cc3)c2)c1   4.13 µM (inactive)
4  Cc1cc(=O)oc2c(CNC(Cc3ccccc3)C(=O)O)c(O)ccc12 (stereo not given)  > 100 µM (inactive)
5   NS(=O)(=O)c1ccc(N=C2C(=O)Nc3ccccc32)cc1  > 100 µM (inactive)

* * *

Test system: OVCAR-8
Test summary: NCI tumour cell line growth inhibition, 48 h
Active and inactive are the calls of the source. Rule as the data show it: active = GI50 up to about 1.1 µM and inactive = higher.
This section presents compounds with their documented GI50 values.
Quantity name: GI50

> print(dat)
                                    compound  target.entity  quantity.name       value.observed
 1      O=C(/C=C/c1ccc(O)cc1)c1ccc2c(c1)OCO2        OVCAR-8           GI50   15.2 µM (inactive)
 2                        CN(C)/C=C/c1ccncc1        OVCAR-8           GI50  > 100 µM (inactive)
 3  CC(C)(Oc1ccc(C(=O)c2ccc(Cl)cc2)cc1Cl)C(=O)N1CCN(CCO)CC1        OVCAR-8           GI50   > 10 µM (inactive)
 4  O=C1c2ccccc2C(O)(O)C1(O)C1(O)C(=O)c2ccccc2C1(O)O (centres undefined)        OVCAR-8           GI50   35.9 µM (inactive)
 5           C=C(CS(=O)(=O)c1ccccc1)C(=O)OCC        OVCAR-8           GI50   10.5 µM (inactive)
 6          Cc1c(Cl)cccc1NC(=O)/C=C/c1ccccc1        OVCAR-8           GI50     38 µM (inactive)
 7  COc1ccccc1C(O)[C@@H]1C[C@@H]2[C@H]3CC[C@@](C)([C@@H]2O1)C3(C)C (some centres undefined)        OVCAR-8           GI50   18.2 µM (inactive)
 8  CC1CC(NN(C)C)C2(C(N)=O)C(N)=NC(=O)C12C#N (centres undefined)        OVCAR-8           GI50  > 100 µM (inactive)
 9  CCOC(=O)CNC(=O)C(CCC(=O)N(C)O)NC(=O)CCC(N)C(=O)O (centres undefined)        OVCAR-8           GI50  > 100 µM (inactive)
10    O=C(Nc1c(O)[nH]c(=S)[nH]c1=O)c1ccccc1F        OVCAR-8           GI50  > 100 µM (inactive)
11              COc1ccc(CCNC(=O)CCCCCO)cc1OC        OVCAR-8           GI50  > 100 µM (inactive)
12  O=C(CC(C(=O)c1ccsc1)c1cccs1)c1ccsc1 (centres undefined)        OVCAR-8           GI50   60.5 µM (inactive)
13    O=C1Sc2cc3ccccc3cc2C(=O)Sc2ccc(Br)cc21        OVCAR-8           GI50   2.51 µM (inactive)
14       CCCc1nc(NC#N)nc(C(=O)Nc2ccccc2)c1CC        OVCAR-8           GI50  > 100 µM (inactive)
